Target: TcCYP51 (Trypanosoma cruzi)
Sequence (Q7Z1V1 whole entry): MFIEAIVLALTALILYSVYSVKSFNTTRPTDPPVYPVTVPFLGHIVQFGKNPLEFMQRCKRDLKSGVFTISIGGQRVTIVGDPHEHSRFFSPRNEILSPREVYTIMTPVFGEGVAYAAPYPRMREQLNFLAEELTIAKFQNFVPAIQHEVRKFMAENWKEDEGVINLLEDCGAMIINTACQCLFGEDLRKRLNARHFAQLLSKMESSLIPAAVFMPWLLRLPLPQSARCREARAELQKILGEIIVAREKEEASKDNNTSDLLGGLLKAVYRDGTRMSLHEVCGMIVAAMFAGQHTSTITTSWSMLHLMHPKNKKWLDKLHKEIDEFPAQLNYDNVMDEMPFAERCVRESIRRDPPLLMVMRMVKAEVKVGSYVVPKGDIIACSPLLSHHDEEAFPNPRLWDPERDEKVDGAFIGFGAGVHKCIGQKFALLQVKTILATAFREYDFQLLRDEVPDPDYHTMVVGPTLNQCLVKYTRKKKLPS
Assay: TcCYP51 counter-screen
Type: biochemical, T. cruzi
Endpoint name: EC50

Prompt: In one line, give reported EC50 of the entry COc1cc(OC)cc(C(=O)Nc2ccc(Nc3nc(C)cc(N(C)C)n3)cc2)c1 [Compound 1] .
Response: > 10 µM

----------
Can you tell me log10(EC50) for the items I'm about to list?
Tested on: T. cruzi amastigotes
Experiment: Intracellular T. cruzi amastigote assay in Vero cells
Type: cell-based, Trypanosoma cruzi
Settings: Trypanosoma cruzi, Vero, read-out: Tc pEC50 (converted)
Reminder: these figures are log10 of reported EC50, in nM before transformation.

Prompt: In one line, give reported log10(EC50) of the entry COc1cc(Nc2nc(C(C)C)cc(N(C)C)n2)ccc1F [Compound 18c] .
Response: 3.30

Prompt: In one line, give reported log10(EC50) of the entry Cc1cc(N(C)C)nc(NC2CCN(C(=O)Cc3ccc(F)cc3F)CC2)n1 [Compound 6e] .
Response: 3.50

Prompt: In one line, give reported log10(EC50) of the entry COc1cc(Nc2cc(C)nc(NCc3ccccc3)n2)ccc1F [Compound 17c] .
Response: 1.90

Prompt: In one line, give reported log10(EC50) of the entry Cc1cc(N(C)C)nc(NCc2ccccc2)n1 [Compound 6a] .
Response: 3.50

Prompt: In one line, give reported log10(EC50) of the entry COc1cc(Nc2nc(C(=O)N3CCCC3)cc(N(C)C)n2)ccc1F [Compound 18e] .
Response: 4.50

Prompt: In one line, give reported log10(EC50) of the entry Cc1cc(N(C)C)nc(Nc2ccc(C(=O)N3CCCCC3)cc2)n1 [Compound 5a] .
Response: 3.30

Prompt: In one line, give reported log10(EC50) of the entry COc1cc(Nc2nc(C)cc(N3CCCC3)n2)ccc1F [Compound 13b] .
Response: 2.50
